assay: Dissociation constant, pKa of the compound; assay type: physicochemical
Would you mind labelling by pKa? At or over 3 is rule met, under is rule not met.

Examples with answers:
smilesEntry	assignedLabel
Fc1ccc2cccnc2c1	rule met
O=C(O)C(F)F	rule not met
Nc1ccccc1F	rule met
O=C(O)c1cccc(F)c1	rule met
Oc1ccccc1F	rule met

Determine whether measured pKa meets or exceeds 3 for O=C(O)c1ccccc1F rule met

Determine whether measured pKa meets or exceeds 3 for Cc1nnn[nH]1 rule met

Determine whether measured pKa meets or exceeds 3 for Nc1ccc(F)cc1 rule met

Determine whether measured pKa meets or exceeds 3 for Fc1cnc2ccccc2c1 rule not met

====

This section presents molecules with their documented ID90 values.
system: Cavia porcellus; test: Inhibition of resiniferatoxin-induced systemic vascular leakage in po dosed guinea pig […] model after 24 hrs; type: functional

Query the reported ID90 for Cavia porcellus; item: C[C@@H](O[C@H]1OCCN(Cc2n[nH]c(=O)[nH]2)[C@H]1c1ccccc1)c1cc(C(F)(F)F)cc(C(F)(F)F)c1 2.3 mg/kg

Query the reported ID90 for Cavia porcellus; item: C[C@@H](O[C@H]1OCCN(Cc2n[nH]c(=O)[nH]2)[C@H]1c1ccc(F)cc1)c1cc(C(F)(F)F)cc(C(F)(F)F)c1 [APREPITANT] 1.8 mg/kg

Query the reported ID90 for Cavia porcellus; item: O=c1[nH]nc(CN2CCO[C@H](OCc3cc(C(F)(F)F)cc(C(F)(F)F)c3)[C@@H]2c2ccc(F)cc2)[nH]1 2.3 mg/kg

Query the reported ID90 for Cavia porcellus; item: O=c1[nH]nc(CN2CCO[C@H](OCc3cc(C(F)(F)F)cc(C(F)(F)F)c3)[C@@H]2c2ccccc2)[nH]1 5.4 mg/kg
